- Tested on: HEK-293T
- PROTOCOL DETAILS: Incucyte cell viability with HEK293T; note: unitless GR value; below 1 slowed growth and below 0 cell loss
- Format: toxicity, cell-based
- TEST PARAMETERS: human, 0 h, 10 µM, compound concentration 10 uM, replicate number 2
READOUT NAME: Growth Rate
The answer should be written as a number, with no unit following it.

Param item = CC(C)(C)C(=O)NCc1ccc(Cl)c(C(=O)Nc2ncc[nH]2)c1 ; retrieve measured Growth Rate.
-0.13

What does the record list as Growth Rate for O=C(CCCN1CCC(O)(c2ccc(Cl)cc2)CC1)c1ccc(F)cc1 ?
-0.68

Any idea what Growth Rate was measured for COc1nc2ccc([C@@](O)(c3ccc(Cl)cc3)c3cncn3C)cc2c(Cl)c1Cc1ccc(-n2cccn2)cc1 ?
-1

* * *

- System: HEK-293T
- PROTOCOL DETAILS: Incucyte cell viability with HEK293T; note: unitless GR value; below 1 slowed growth and below 0 cell loss
- Assay type: toxicity, cell-based
- TEST PARAMETERS: human, 12 h, 10 µM, compound concentration 10 uM, replicate number 2
READOUT NAME: Growth Rate
// no unit string in output, number only

Data request, read-out Growth Rate, for CN[C@@H](C)C(=O)N[C@H](C(=O)N1CCC[C@H]1C(=O)Nc1snnc1-c1ccccc1)C1CCCCC1 [GDC-0152]
0.05

Bench note: what Growth Rate did O=C(Nc1ccc(C(O)(C(F)(F)F)C(F)(F)F)cc1)c1ccc(C(F)(F)F)cc1 show?
0.2

If you can, please state the reported Growth Rate value of COc1ccc(Cl)cc1[C@]1(F)C(=O)Nc2cc(C(F)(F)F)ccc21 [FLINDOKALNER] .
0.38

Name the reported Growth Rate value associated with the compound COc1cc(CN(CCN)C(=O)N[C@@H](C)c2ccccc2)ccc1OCc1ccccc1.Cl
0.77

Which Growth Rate value belongs to O=C(CCCCCCc1ccccc1)c1ncc(-c2ccccn2)o1 ?
0.88

Data request, read-out Growth Rate, for CCc1cncnc1N1CCN(Cc2nc3cc(C(F)(F)F)ccc3[nH]2)CC1
0.34

Reported Growth Rate for CC(=O)NCC(=O)N1[C@@H]2CC[C@H]1c1ccc(Nc3ncc(C(F)(F)F)c(NC4CCC4)n3)cc12 [PF-03814735] : what is it?
-0.75

* * *

- Tested on: U2OS
- PROTOCOL DETAILS: Incucyte cell viability with U2OS; note: unitless GR value; below 1 slowed growth and below 0 cell loss
- Type: toxicity, cell-based
- TEST PARAMETERS: human, 18 h, 10 µM, compound concentration 10 uM, replicate number 1
Binarize Growth Rate at 0.8; below is true, at or above is false.

Problem: For the compound CCOC(=O)c1ncn2c1[C@@H]1CCCN1C(=O)c1cc(OC)ccc1-2 , is Growth Rate under 0.8?
false

# check: Growth Rate < 0.8 for NC(=O)C1CCCc2c1[nH]c1ccc(Cl)cc21 (stereo unspecified)
false

API: query returns whether the compound falls strictly under 0.8 in Growth Rate. Query: Cc1c(-c2c(F)cc(C(N)=O)c3[nH]c4c(c23)CC[C@H](C(C)(C)O)C4)cccc1-n1c(=O)c2cccc(F)c2n(C)c1=O
true

Say whether its Growth Rate is strictly beneath 0.8. Entry: Cc1cccc(-c2nn3c(c2-c2ccnc4ccc(C(N)=O)cc24)CCC3)n1
true

Does this compound meet the criterion Growth Rate < 0.8? CCOc1ccc(S(=O)(=O)Nc2ccc(Cl)cc2C#Cc2cnc(C(=O)[O-])cc2OC)c2ncccc12.[K+]
false

Consider the compound CN1CCN(c2ccnc(NCCc3ccccc3)n2)CC1 [TP-040n] . Is its Growth Rate strictly less than 0.8?
false

Below 0.8 on Growth Rate? Entry COc1ccc(F)c(F)c1C(=O)c1cnc(NC2CCN(S(C)(=O)=O)CC2)nc1N
true

Does CNCc1ccc(-c2cc(-c3nc(-c4ccc(S(=O)(=O)C(C)C)cc4)cnc3N)on2)cc1 have Growth Rate strictly under 0.8?
true

Confirm or reject: Growth Rate of Cc1cc(C)nc(Nc2ncc(C(=O)NCCc3c(C)[nH]c4ccccc34)cn2)c1.Cl lies strictly below 0.8
true

Quick check: does CCC(=O)O[C@]1(C(=O)CCl)[C@@H](C)C[C@H]2[C@@H]3CCC4=CC(=O)C=C[C@]4(C)[C@@]3(F)[C@@H](O)C[C@@]21C [CLOBETASOL PROPIONATE] have Growth Rate under 0.8?
false

Is Growth Rate strictly under 0.8 for the entry Cc1nsc(Nc2cnc(C(F)(F)F)cn2)c1C(=O)Nc1ccc(O[C@H]2CCCN(CC(F)(F)F)C2)nc1 ?
true

# check: Growth Rate < 0.8 for O=C1NC(=NCc2cccs2)SC1=Cc1ccc2ncccc2c1
true

Is it true that Growth Rate reported for C/C(=C\C(=O)Nc1ccccc1C(=O)[O-])c1ccc2ccccc2c1.[Na+] is less than 0.8?
false

Input Cc1c(NC(=O)c2cccn(-c3ccc(F)cc3)c2=O)ccc(Oc2ccnc(NC(=O)C3CC3)c2)c1C ; condition: Growth Rate strictly below 0.8. Does it hold?
false

State whether 0.8 exceeds Growth Rate recorded for COc1cc(C(=O)NC2CCN(C)CC2)ccc1Nc1ncc2c(n1)N(C1CCCC1)CC(F)(F)C(=O)N2C .
true

# TODO verify Growth Rate < 0.8 strictly for this compound: O=c1[nH]c(CS[C@H]2CC[C@H](O)CC2)nc2cc(OCC3CC3)cc(F)c12
false

Does this compound meet the criterion Growth Rate < 0.8? CCn1cnc2c(-c3ccc(F)c(-c4ccc(S(=O)(=O)CC)cc4OC)c3)cnnc21
true

Please indicate whether the reported Growth Rate of CC[C@H](NC(=O)[C@H](C)NC)C(=O)N1C[C@@H](O)C[C@H]1Cc1c(-c2[nH]c3cc(F)ccc3c2C[C@@H]2C[C@H](O)CN2C(=O)[C@H](CC)NC(=O)[C@H](C)NC)[nH]c2cc(F)ccc12 is strictly below 0.8.
false

Hi there! Is Growth Rate for Cc1cc(C)cc(C(=O)NOCCCCCC(=O)NO)c1 below 0.8, do you know?
true

# TODO verify Growth Rate < 0.8 strictly for this compound: CCc1cnn2c(NCc3ccc[n+]([O-])c3)cc(N3CCCCC3CCO)nc12 (stereo unspecified)
true

* * *

- Test system: HEK-293T
- PROTOCOL DETAILS: Incucyte cell viability with HEK293T; note: unitless GR value; below 1 slowed growth and below 0 cell loss
- Format: toxicity, cell-based
- TEST PARAMETERS: human, 0 h, 10 µM, compound concentration 10 uM, replicate number 2
Growth Rate vs 0.1: at or above is t, below is f.

// inclusive: Growth Rate at least 0.1? input: Nc1nc(-c2nn(Cc3ccccc3F)c3ncccc23)ncc1C1CC1
t

hey, is Growth Rate for this one >= 0.1? CC(C)(O)[C@H](F)CN1Cc2cc(NC(=O)c3cnn4cccnc34)c(N3CCOCC3)cc2C1=O
t

Does Growth Rate meet or surpass 0.1 for Cc1nc2c(cc1F)c(-c1nnc3c(n1)NC(=O)C3(C)C)nn2Cc1cccc(F)c1F ?
t

I'd appreciate it if you could say whether COc1cc(Cl)c(C(=O)N[C@@H](CN[C@H]2CC[C@@H](N)CC2)Cc2ccc(C#N)cc2)cc1-c1ccc(CN[C@H](C)c2ccc(C)cc2)o1 has Growth Rate at least equal to 0.1.
f

Is reported Growth Rate greater than or equal to 0.1 here: COc1cc(C(=O)NC2CCN(C)CC2)ccc1Nc1ncc(C(F)(F)F)c(NCc2ccc(C)cc2N(C)S(C)(=O)=O)n1.O=CO.O=CO
f

Test whether the compound O=C(N[C@@H]1C2CCN(CC2)[C@H]1Cc1cccnc1)c1cc2ccccc2o1 records Growth Rate of 0.1 or higher.
t

Does the compound CN(C)C(=O)Cn1cc(-c2ccc(-c3nnc4ccccn34)cc2)cn1 have recorded Growth Rate that is 0.1 or more?
t

* * *

- Test system: HEK-293T
- PROTOCOL DETAILS: Incucyte cell viability with HEK293T; note: unitless GR value; below 1 slowed growth and below 0 cell loss
- Type: toxicity, cell-based
- TEST PARAMETERS: human, 24 h, 10 µM, compound concentration 10 uM, replicate number 1
READOUT NAME: Growth Rate

Look at this molecule and give its reported Growth Rate. COc1cc(-c2cc3ncccc3c(OC[C@H]3CNC(=O)C3)n2)cc(OC)c1OC1CCOCC1.O=C(O)C(F)(F)F
0.33

Endpoint output: Growth Rate of C[S+](C)[O-] [DIMETHYL SULFOXIDE] . Value?
0.9

// lookup Growth Rate for CN[C@@H](C)C(=O)N[C@H](C(=O)N1CCC[C@H]1C(=O)N[C@H]1c2ccccc2C[C@H]1OCC#CC#CCO[C@@H]1Cc2ccccc2[C@@H]1NC(=O)[C@@H]1CCCN1C(=O)[C@@H](NC(=O)[C@H](C)NC)C1CCCCC1)C1CCCCC1
-0.12

* * *

What Growth Rate was measured for each of the following?
- Test system: HEK-293T
- PROTOCOL DETAILS: Incucyte cell viability with HEK293T; note: unitless GR value; below 1 slowed growth and below 0 cell loss
- Type: toxicity, cell-based
- TEST PARAMETERS: human, 12 h, 10 µM, compound concentration 10 uM, replicate number 1
# output: bare number, no unit

Given CC/C(=C(\c1ccccc1)c1ccc(OCCN(C)C)cc1)c1ccccc1.O=C(O)CC(O)(CC(=O)O)C(=O)O [TAMOXIFEN CITRATE] , state its recorded Growth Rate.
0.4

I have this molecule here, O=C(Cc1ccccc1)Nc1nnc(N2CC[C@@H]3[C@H]2CN3c2cccnn2)s1 [A-426] , and I need its recorded Growth Rate.
0.39

What does the record list as Growth Rate for CC[C@](C)(O)C#Cc1cc2c(ccn2-c2cc(OC)nc(N)n2)cn1 ?
0.4
